System: UO-31 renal
Assay: NCI-60 one-dose screen, 48 h (100 = growth as untreated, 0 = no growth, -100 = all killed)
Conditions: 10 µM
This is part of a sample that, as a whole, favours compounds with a hit. Of some 83,000 tested, about 20% had one in any assay.
Reported Endpoint: growth (%)

> print(dat)
                         compound.structure  unit.tag  assay.value
1  COc1cc(CSc2nc3ccc(Cl)cc3c(=O)n2Cc2ccccc2)cc(OC)c1OC         %         27.1
2  O=C(O)CNS(=O)(=O)c1ccc(OCCOc2ccc(S(=O)(=O)NCC(=O)O)cc2)cc1         %         85.7
3  COc1cc(C2=Nc3c/c(=C\c4c(O)[nH]c5ccc(Cl)cc45)ccc3=N2)cc(OC)c1OC         %         35.5
4  COc1ccc(Cn2cc3c(c2-c2cc(OC)c(OC)c(OC)c2)CCc2cnoc2-3)cc1N         %         40.4

----------
System: HCC-2998 colon
Assay: NCI-60 one-dose screen, 48 h (100 = growth as untreated, 0 = no growth, -100 = all killed)
Settings: 10 µM
This is part of a sample that, as a whole, favours compounds with a hit. Of some 83,000 tested, about 20% had one in any assay.
Categorize each record by its growth using bucket 1 = under 20%, bucket 2 = from 20% up to 90%, bucket 3 = 90% and over

> print(dat)
                         compound.structure   target.entity  category
1  COc1ccccc1S(=O)(=O)Nc1ccc2c(c1)CN(C)C(=O)N2  HCC-2998 colon  bucket 2
2  Cc1ccc([P+](Cc2ccccc2)(c2ccccc2)c2ccccc2)cc1  HCC-2998 colon  bucket 2
3                         CCNC1(NC#N)CCCCC1  HCC-2998 colon  bucket 3
4  O=C(NC1CCN(Cc2ccccc2)CC1)c1cc(-c2ccncc2)nc2ccc(Cl)cc12  HCC-2998 colon  bucket 2
5  CCOC(=O)c1cc2c(n1Cc1cccc(OC)c1)-c1oncc1CC2  HCC-2998 colon  bucket 2
6  CCN1CCN(c2nc(NNC(=O)c3cccc(OC)c3)nc(N3CCN(C(c4ccccc4)c4ccccc4)CC3)n2)CC1  HCC-2998 colon  bucket 1

----------
Tested on: KM12 colon
Assay: NCI-60 one-dose screen, 48 h
Conditions: 10 µM
About 83,000 compounds went through this panel and 20% of them were active in at least one assay; those are over-represented in the sample as a whole. The source made the active and inactive calls. How the source made its calls: active means growth percent below 10; inactive means the rest.
Labels: active, inactive

> print(dat)
                                    compound  category
 1              Fc1ccc(-c2cc(C(Cl)Cl)no2)cc1  inactive
 2  CCN1CCN(c2ccc(Nc3ncnc4c3nnn4CCc3cc(OC)cc(OC)c3)cc2)CC1  inactive
 3  CCCC(C)c1ccc(OCCCCCCN2CCNCC2)cc1 (stereo unspecified)  inactive
 4  OC(CNC1CCCC1)Cn1c2ccccc2c2ccccc21 (stereo unspecified)  inactive
 5  CC(=O)Oc1c(C)c(C)c2c(c1C)CCC(C)(CC(=O)OCCCCCCCCCCC[P+](c1ccccc1)(c1ccccc1)c1ccccc1)O2 (stereo unspecified)    active
 6  COc1ccc(-c2nnc(N3CCN(C(=O)CN4CCN(c5ccc(Cl)cc5)CC4)CC3)nc2-c2ccc(OC)cc2)cc1  inactive
 7  Cc1cc2cc3c(=O)[nH]c(=O)cc-3n(CC(O)C(O)C(O)CO)c2cc1C (stereo unspecified)  inactive
 8  CCOc1nc(-c2ccccc2)cc2c(O)c(C(=O)NC(C)C)[nH]c(=O)c12  inactive
 9  COc1cccc(C(=O)NNc2nc(N3CCOCC3)nc(N3CCN(C(c4ccccc4)c4ccccc4)CC3)n2)c1  inactive
10  COc1ccc(-c2cc(/C=C3\C(=O)Nc4cc(Cl)ccc43)[nH]n2)cc1  inactive
11    CN(C)CCCN1c2ccccc2Sc2ccc(C(F)(F)F)cc21    active
12  Cc1ncc([N+](=O)[O-])n1CCOc1ccc(C(=O)/C=C/c2ccc(C(F)(F)F)cc2)cc1  inactive
13  O=C(NC1CCCC1)c1ccc(N2CCC(NCc3cccc(C(F)(F)F)c3)CC2)cc1  inactive
14  CCCCCCCCCCN=C(c1ccc(N(C)C)cc1)c1ccc(N(C)C)cc1  inactive
15  COc1ccc(-c2cc(/C=C3\C(=O)Nc4cc(Cl)ccc43)[nH]n2)cc1OC  inactive
16  Cc1ccccc1C1=N[C@@H](Cc2ccccc2)C(=O)c2c(nc3ccccn23)N1  inactive
17      Clc1ccc(-c2nc(-c3cccs3)cn3ccnc23)cc1  inactive
18       CCCOCC(O)CNCCN (stereo unspecified)  inactive
19  COc1cc(CSc2nc3ccc(C)cc3c(=O)n2Cc2ccccc2)cc(OC)c1OC  inactive
20  CCN(CC)CCOC(=O)c1ccc(N=Nc2ccc(O)c(OC)c2)cc1  inactive
21           CCc1c(C)[nH]c(=O)c(C(N)=O)c1C#N  inactive
22  COc1cccc2c1C(=O)c1c(O)c3c(c(O)c1C2=O)C[C@@](O)(C(=O)COC(=O)c1cccnc1)C[C@@H]3OC1CC(N)C(O)C(C)O1 (stereo partly specified)    active
23  CS(=O)(=O)Nc1ccc(Nc2c3ccccc3nc3cc(Cl)ccc23)cc1  inactive
24  CCC(OC(=O)CC(C)C)c1ccccc1 (stereo unspecified)  inactive
25  COc1ccc(Cn2cc3c(c2-c2ccccc2)CC(C)(C)c2cnoc2-3)cc1  inactive
26  CC(C)CCN(CCCNc1c2c(nc3cc(Cl)ccc13)CCCC2)CCC(C)C  inactive
27  CCCn1c(=O)c2c(nc(-c3cccc(OCCCCl)c3)n2C)n(CCC)c1=O  inactive
28  COc1cc(-c2nc(-c3nnc(-c4cccnc4)o3)c3ccccn23)cc(OC)c1OC  inactive
29  Cc1c(C(=O)N[C@H](CO)Cc2ccccc2)[nH]c2ccc(Cl)cc2c1=O  inactive
30  COc1cc(-c2nc3ccccc3[nH]2)ccc1OCc1nnc(-c2ccc(Br)cc2)o1  inactive
31  CCCCn1c(=O)[nH]c(N)c(C(c2ccc(Cl)cc2)c2c(N)[nH]c(=O)n(CCCC)c2=O)c1=O  inactive
32  Cc1cccc2c(Nc3ccc(NS(C)(=O)=O)cc3)c3ccc([N+](=O)[O-])cc3nc12    active
33  c1ccc(OCCC[P+](c2ccccc2)(c2ccccc2)c2ccccc2)cc1    active
34  CCOC(=O)[C@@H](Cc1ccccc1)NC(=O)c1[nH]c2ccc(Cl)cc2c(=O)c1C  inactive
35  COc1cccc2c1O/C(=C\c1ncc([N+](=O)[O-])n1C)C2=O    active
36  CC1(C)Cc2c(cn(Cc3ccccc3)c2-c2ccccc2)-c2oncc21  inactive
